B1: PDS5B (parent)
chain: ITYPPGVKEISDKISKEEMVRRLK

Variants of: B1
methodSummary: protein stability index of a GFP-peptide fusion (GPS, HEK-293T) (PSI 1-6); higher = more stable;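 note: lentivirally expressed fusions sorted by FACS into six bins by GFP to DsRed ratio, PSI derived from sequencing read proportions per bin multiplied by bin number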
testConditions: c terminus: a fixed tail appended

mutantName	protein stability index
L23N	4.49
K16I	2.85
S15M	4.01
R21C	3.96
P5I	4.29
K13L	3.3
V7P	3.47
M19E	4.79
I14Y	2.68
R21T	4.63
K8P	3.69
K13M	3.76
I1N	5.13
L23P	4.85
V7I	4.43
D12H	3.83
T2V	2.4
K24V	3.61
R21L	4.15
D12R	3.19
E9W	2.24
Y3Q	4.97
D12L	3.18
K8W	3.09
E17P	3.6
E17G	3.52
K8C	3.31
G6W	3.3
P5N	4.01
K13C	2.79
E18M	3.12
D12G	3.15
K24T	4.13
R22F	3.85
R21I	3.41
R21G	4.75
R22I	2.71
E9T	3.15
E9A	4.16
K16H	3.75
E17T	4.68
R21E	3.69
P4I	1.94
P4T	3.15
G6T	4.31
G6N	3.54
